# measuredOn: T1, Cbx7.V1 (His6- and Flag-tagged construct, used for BLI) (human, UniProt O95931 7-66, E8D (printed as the back-mutation D8E) | Q9D | V10I (printed as the …))
# T1 construct: chromodomain of human Cbx7 (Cbx7-chromo), UniProt O95931; removal of the tags is told only for FP and ITC; source: E. coli BL21(DE3), purified (Ni-NTA)
# T1 sequence: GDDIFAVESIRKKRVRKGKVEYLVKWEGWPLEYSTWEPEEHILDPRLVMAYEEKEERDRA
# procedureSummary: BLI; biotinylated peptides immobilised on streptavidin biosensor tips (Octet HTX); chromodomains in solution at 5 or 1 µM; 25 °C; 25 mM HEPES pH 7.0, 150 mM NaCl, 1 mg/ml BSA, 0.01% Tween-20; steady-state fit, Langmuir model
# particulars: both partners purified
pKd: −log10 of the molar value.
measure: pKd

I. ARTKQTARKSTGGKAPR (trimethyl-lysine at K9; biotin followed by an aminohexanoic acid linker at the N-terminus) [H3K9me3 peptide, N-terminal biotin]
II. KQLATKAARKSAPATGGVK (trimethyl-lysine at K27; biotin followed by an aminohexanoic acid linker at the N-terminus) [H3K27me3 peptide, N-terminal biotin]
// task: argmin of pKd over [ I , II ] Output the label that corresponds to your choice. I
